These entries and their values trace back to ChEMBL document CHEMBL1649105.

# target: Follicle-stimulating hormone receptor (Homo sapiens) (UniProt P23945)
# Sequence (P23945 whole entry): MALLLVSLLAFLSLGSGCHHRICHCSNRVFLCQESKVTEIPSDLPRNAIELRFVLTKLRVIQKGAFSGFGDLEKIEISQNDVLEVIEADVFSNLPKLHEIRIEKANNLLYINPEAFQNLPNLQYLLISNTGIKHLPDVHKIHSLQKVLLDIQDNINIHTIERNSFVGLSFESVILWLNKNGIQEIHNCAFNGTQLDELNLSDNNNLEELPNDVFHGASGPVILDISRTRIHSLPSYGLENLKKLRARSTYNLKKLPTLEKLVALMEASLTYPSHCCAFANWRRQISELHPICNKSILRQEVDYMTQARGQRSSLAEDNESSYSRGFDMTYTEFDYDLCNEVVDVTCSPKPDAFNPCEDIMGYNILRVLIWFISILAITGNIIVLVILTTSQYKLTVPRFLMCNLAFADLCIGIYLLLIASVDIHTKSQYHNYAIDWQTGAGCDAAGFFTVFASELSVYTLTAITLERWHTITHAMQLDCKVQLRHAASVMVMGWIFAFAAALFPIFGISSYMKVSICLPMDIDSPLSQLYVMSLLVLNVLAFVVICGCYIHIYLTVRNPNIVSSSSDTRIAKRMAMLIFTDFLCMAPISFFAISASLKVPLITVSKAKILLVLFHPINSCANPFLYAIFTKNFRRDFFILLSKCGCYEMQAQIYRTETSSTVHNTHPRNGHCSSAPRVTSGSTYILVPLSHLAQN
# protocol_summary: Agonist activity at human FSHR receptor expressed in CHO-K1 cells assessed as stimulation of luciferase activity at 10 uM by CRE-driven luciferase reporter gene assay relative to control
# Type: functional, cell-based
Binary call on Emax with cut-off 40%: strictly below means 1, and equality or higher means -1.

[Q] I'd appreciate it if you could check whether "CSc1nc(-c2cccc(NCC(=O)NCc3cn(CCOCCOCCn4cc(COc5ccc([C@]6(C)CC(C)(C)N(C(C)=O)c7ccc(NC(=O)c8ccc(-c9ccccc9)cc8)cc76)cc5)nn4)nn3)c2)c2c(N)c(C(=O)NC(C)(C)C)sc2n1" has Emax smaller than 40%.
[A] 1

[Q] I'd appreciate it if you could check whether "CSc1nc(-c2cccc(NCC(=O)NCc3cn(CCOCCn4cc(COc5ccc([C@]6(C)CC(C)(C)N(C(C)=O)c7ccc(NC(=O)c8ccc(-c9ccccc9)cc8)cc76)cc5)nn4)nn3)c2)c2c(N)c(C(=O)NC(C)(C)C)sc2n1" has Emax smaller than 40%.
[A] -1

[Q] I'd appreciate it if you could check whether "CSc1nc(-c2cccc(NCC(=O)NCc3cn(CCn4cc(COc5ccc([C@]6(C)CC(C)(C)N(C(C)=O)c7ccc(NC(=O)c8ccc(-c9ccccc9)cc8)cc76)cc5)nn4)nn3)c2)c2c(N)c(C(=O)NC(C)(C)C)sc2n1" has Emax smaller than 40%.
[A] -1

[Q] I'd appreciate it if you could check whether "CSc1nc(-c2cccc(NCC(=O)NCc3cn(CCOCCOCCOCCn4cc(COc5ccc([C@]6(C)CC(C)(C)N(C(C)=O)c7ccc(NC(=O)c8ccc(-c9ccccc9)cc8)cc76)cc5)nn4)nn3)c2)c2c(N)c(C(=O)NC(C)(C)C)sc2n1" has Emax smaller than 40%.
[A] 1
